Tested on: HS 578T breast
Experiment: NCI tumour cell line growth inhibition, 48 h
# GI50 listing for each entry below

>  <compound>
COc1ccc2[nH]cc(-c3ccc(-c4c[nH]c5ccc(OC)cc45)s3)c2c1

>  <result>
8.99 µM

$$$$

The recorded GI50 for entry `COc1ccc(C(=S)N2CCN(c3cccc(C)c3)CC2)cc1OC` equals 3.16 µM

###

Tested on: CCRF-CEM leukemia
Assay: NCI tumour cell line growth inhibition, 48 h
Please note: met applies when TGI is 30 µM or greater, and not met applies otherwise.

Answered cases to consult:
>  <compound>
CCN(CC)CCNc1ccc2nnn3c4ccc(C)cc4c(=O)c1c23

>  <target>
CCRF-CEM leukemia

>  <classification>
not met

$$$$
>  <compound>
CCCCON(OC(=O)c1ccc2ccccc2c1)C(=O)c1ccccc1

>  <target>
CCRF-CEM leukemia

>  <classification>
met

$$$$
>  <compound>
C=C(C)[C@@H]1CC[C@]2(C)CC[C@]3(C)[C@H](CC[C@@H]4[C@@]5(C)CC[C@H](O)C(C)(C)[C@@H]5CC[C@]43C)[C@@H]12

>  <target>
CCRF-CEM leukemia

>  <classification>
met

$$$$
>  <compound>
CN1CCc2c3n(c4cc(Br)ccc24)[C@H](O)CCCC31 (some centres not stated)

>  <target>
CCRF-CEM leukemia

>  <classification>
not met

$$$$
>  <compound>
Cc1ccc2c(c1)C(=O)N(N(C)C)CC(=O)N2

>  <target>
CCRF-CEM leukemia

>  <classification>
met

$$$$
>  <compound>
Cc1ccc(Cc2n[nH]c(=O)n2Nc2ccccc2)cc1

>  <target>
CCRF-CEM leukemia

>  <classification>
met

$$$$

Data request: Does the reported TGI for `c1ccc(-c2nnc(-c3ccccn3)c3c2C[C@@H]2C[C@@H]4Cc5c(-c6ccccn6)nnc(-c6ccccn6)c5[C@@H]4[C@H]32)nc1` fall at or above the 30 µM mark?
Data returned: met

###

Test system: NCI/ADR-RES ovarian
Experiment: NCI tumour cell line growth inhibition, 48 h
Please note: yes applies when TGI is 20 µM or greater, and no applies otherwise.

Answered cases to consult:
>  <molecule>
CN(Cc1ccccc1)C(=NC#N)N(Cc1ccccc1)Cc1ccccc1

>  <classification>
yes

$$$$
>  <molecule>
C=C(C)C(O)CCC1(C)C=Cc2c(c(C)cc3c2[nH]c2ccccc23)O1 (stereo unspecified)

>  <classification>
yes

$$$$
>  <molecule>
CN(CCO)CC[C@H](CSc1ccccc1)Nc1ccc(S(=O)(=O)NC(=O)c2ccc(N3CCC([C@@H](O)c4ccccc4-c4ccc(Cl)cc4)CC3)cc2)cc1S(=O)(=O)C(F)(F)F

>  <classification>
yes

$$$$
>  <molecule>
CC1OC(OC2C(O)COC(OC3C(C)OC(OC4C(OC(=O)[C@]56CCC(C)(C)C[C@@H]5C5=CCC7[C@@]8(C)C[C@H](O)[C@H](OC9OC(CO)C(O)C(OC%10OC(CO)C(O)C(O)C%10O)C9O)[C@@](C)(CO)[C@@H]8CC[C@@]7(C)[C@]5(C)CC6)OCC(O)C4O)C(O)C3OC3OCC(O)(CO)C3O)C2O)C(O)C(O)C1O (stereo partly specified)

>  <classification>
no

$$$$
>  <molecule>
O=C(c1ccccc1)n1c(Cc2ccccc2)nc2cc(C34CC5CC(CC(C5)C3)C4)ccc21

>  <classification>
yes

$$$$
>  <molecule>
C[C@]12C[C@H](CCCCCCNCCOC(=O)NCCCc3ccc(N(CCCl)CCCl)cc3)C3=C4CCC(=O)C=C4CCC3C1CC[C@@H]2O (stereo partly specified)

>  <classification>
yes

$$$$
>  <molecule>
CN(/N=C/c1cccc2cccnc12)c1ccc([N+](=O)[O-])cc1[N+](=O)[O-]

>  <classification>
yes

$$$$
>  <molecule>
O=C(O)c1cc(CC2Cc3cc4c(cc3C2=O)CCC4)cc2c1CCC2 (stereo unspecified)

>  <classification>
yes

$$$$

Data request: Does the reported TGI for CC(=O)OCC1=C(C(=O)O)N2C(=O)C(NC(=O)CSc3ccncc3)C2SC1 (stereo unspecified) fall at or above the 20 µM mark?
Data returned: yes

Data request: Does the reported TGI for CC[C@@]1(O)C(=O)OCc2c1cc1n(c2=O)Cc2c-1nc1ccccc1c2/C=N\NC(=O)C(N)CO (stereo partly specified) fall at or above the 20 µM mark?
Data returned: no

Data request: Does the reported TGI for `O=c1c2ccccc2nc(-c2cc3c(cc2Cl)Sc2nccn2S3(=O)=O)n1-c1ccccc1` fall at or above the 20 µM mark?
Data returned: yes

Data request: Does the reported TGI for `CCN(C(=O)N[C@@H](Cc1ccccc1)C(=O)N[C@@H](CC(C)C)C(=O)OC)c1ccccc1` fall at or above the 20 µM mark?
Data returned: yes

Data request: Does the reported TGI for `CCOC(=O)N1CCN(/[N+]([O-])=N/Oc2ccc([N+](=O)[O-])cc2[N+](=O)[O-])CC1` fall at or above the 20 µM mark?
Data returned: no

Data request: Does the reported TGI for Cc1cc(-c2cccc3ccccc23)c(C#N)c(=S)n1C1OC(CO)C(O)C(O)C1O (stereo unspecified) fall at or above the 20 µM mark?
Data returned: yes

Data request: Does the reported TGI for `NC(=O)Nc1ccc(S(=O)(=O)Nc2ccc(S(N)(=O)=O)cc2)cc1` fall at or above the 20 µM mark?
Data returned: yes

Data request: Does the reported TGI for `O=C1C(Cl)=C(Nc2cccc(Cl)c2)C(=O)N1Cc1ccc(Cl)cc1` fall at or above the 20 µM mark?
Data returned: no

###

# GI50 listing for each entry below
System: DU-145 prostate
Test: NCI tumour cell line growth inhibition, 48 h

>  <molecule>
O=c1[nH]c(=O)c2cn[nH]c2[nH]1

>  <GI50>
> 100 µM

$$$$
>  <molecule>
C[C@]12C[C@H](CCCCCCNCCOC(=O)NCCCc3ccc(N(CCCl)CCCl)cc3)C3=C4CCC(=O)C=C4CCC3C1CC[C@@H]2O (stereo partly drawn)

>  <GI50>
0.454 µM

$$$$
>  <molecule>
COc1cc(/C=C\c2cc(OC)c(OC)c(OC)c2)cc(NC(=O)/C=C/c2cc(OC)c(OC)c(OC)c2)c1OC

>  <GI50>
> 100 µM

$$$$
>  <molecule>
CCCCON(OC(=O)c1ccc2ccccc2c1)C(=O)c1ccccc1

>  <GI50>
> 100 µM

$$$$
>  <molecule>
OC(Cc1ccncc1)C(Cl)(Cl)Cl (stereo not drawn)

>  <GI50>
> 100 µM

$$$$

Observed GI50, DU-145 prostate, `COc1cccc(N2CCN(CC(=O)N3CCN(c4nnc(-c5ccc(Cl)cc5)c(-c5ccc(Cl)cc5)n4)CC3)CC2)c1` : > 100 µM

Observed GI50, DU-145 prostate, `CCOC(=O)Nc1ccc2c(c1)/C(=N\NC(N)=S)c1ccccc1-2` : 5.15 µM

Observed GI50, DU-145 prostate, `ClCc1cccc2c(CCl)cccc12` : 1.76 µM

###

# TGI listing for each entry below
Tested on: PC-3 prostate
Experiment: NCI tumour cell line growth inhibition, 48 h

Solved entries:
>  <compound>
C=CCOc1cc(NC(=S)c2ccoc2C)ccc1OC

>  <result>
> 100 µM

$$$$
>  <compound>
N#CC(C#N)=C1c2ccccc2C(=NN)c2ccccc21

>  <result>
> 100 µM

$$$$
>  <compound>
O=S1(=O)OCCOS(=O)(=O)C1S(=O)(=O)c1ccc2ccccc2c1

>  <result>
> 100 µM

$$$$
>  <compound>
Cc1c[n+](=O)c2ccccc2n1[O-]

>  <result>
> 100 µM

$$$$
>  <compound>
CCCCCCCCNc1cc2c3c(c1)CCCN3CCC2

>  <result>
12.8 µM

$$$$

Observed TGI, PC-3 prostate, CC12O[C@]3([C@H](C(=O)N4CCOC43C)[C@H]1Cl)[C@H]1O[C@H]12 (stereo partly specified) : > 100 µM

###

Tested on: PC-3 prostate
Experiment: NCI tumour cell line growth inhibition, 48 h
measured.property: TGI (µM)
Give the value in µM but do not write µM after it.

Solved entries:
>  <compound>
C/C(=N\NC(=S)N1CC2CCC(CC2)C1)c1nccs1

>  <measured.property>
TGI

>  <measured.number>
16.6

$$$$
>  <compound>
Clc1nc(Cl)c2ncn(CC3(Cn4cnc5c(Cl)nc(Cl)nc54)COC3)c2n1

>  <measured.property>
TGI

>  <measured.number>
0.348

$$$$
>  <compound>
CCN(Cc1ccc(Cl)cc1)c1ccc(CO)c(Cl)c1

>  <measured.property>
TGI

>  <measured.number>
27.7

$$$$
>  <compound>
CCN1CCC(O)(c2ccc(Oc3ccccc3)cc2)C(C(=O)c2ccc(Oc3ccccc3)cc2)C1 (stereo not given)

>  <measured.property>
TGI

>  <measured.number>
27.1

$$$$

The recorded TGI for entry `CC[C@@H]1c2c(C#N)ncn2-c2cnc(Nc3ccc(C(=O)NC4CCN(C5CCN(CC6CC6)CC5)CC4)cc3OC)nc2N1C1CCCC1` equals 2.08

The values you see were collected from PubChem BioAssay (NCI).
